The measured values listed here are drawn from patent US20130130912A1.

test: solubility of pesticide actives in dialkyl carbonate solvents (CIPAC method MT181); type: physicochemical; conditions: di-n-butylcarbonate (DNBC) solvent, 20 deg C.
Give SOLUBILITY OF PESTICIDE ACTIVES IN di-n-butylcarbonate (DNBC) SOLVENT for every item shown.
# number only, unit grams/litre dropped from output

Return reported SOLUBILITY OF PESTICIDE ACTIVES IN di-n-butylcarbonate (DNBC) SOLVENT; argument: CC(C)(C)C(O)C(Oc1ccc(Cl)cc1)n1cncn1 (centres unmarked) [Triadimenol] 45

Return reported SOLUBILITY OF PESTICIDE ACTIVES IN di-n-butylcarbonate (DNBC) SOLVENT; argument: CCNc1nc(NC(C)C)nc(SC)n1 [Ametryn] 350

Return reported SOLUBILITY OF PESTICIDE ACTIVES IN di-n-butylcarbonate (DNBC) SOLVENT; argument: Fc1ccc([C@]2(Cn3cncn3)O[C@H]2c2ccccc2Cl)cc1 (racemic) [Epoxiconazole] 45

Return reported SOLUBILITY OF PESTICIDE ACTIVES IN di-n-butylcarbonate (DNBC) SOLVENT; argument: CC(C)(C)C(O)(CCc1ccc(Cl)cc1)Cn1cncn1 (centres unmarked) [Tebuconazole] 140
